Molecular target: T1, Human Semaphorin3A-Fc (R&D Systems), TPP-13211 (human)
T1 construct: R&D Systems 1250-S3; also called recombinant human Sema3A-Fc chimera
T1 sequence (chain, as listed by the source limits assumed): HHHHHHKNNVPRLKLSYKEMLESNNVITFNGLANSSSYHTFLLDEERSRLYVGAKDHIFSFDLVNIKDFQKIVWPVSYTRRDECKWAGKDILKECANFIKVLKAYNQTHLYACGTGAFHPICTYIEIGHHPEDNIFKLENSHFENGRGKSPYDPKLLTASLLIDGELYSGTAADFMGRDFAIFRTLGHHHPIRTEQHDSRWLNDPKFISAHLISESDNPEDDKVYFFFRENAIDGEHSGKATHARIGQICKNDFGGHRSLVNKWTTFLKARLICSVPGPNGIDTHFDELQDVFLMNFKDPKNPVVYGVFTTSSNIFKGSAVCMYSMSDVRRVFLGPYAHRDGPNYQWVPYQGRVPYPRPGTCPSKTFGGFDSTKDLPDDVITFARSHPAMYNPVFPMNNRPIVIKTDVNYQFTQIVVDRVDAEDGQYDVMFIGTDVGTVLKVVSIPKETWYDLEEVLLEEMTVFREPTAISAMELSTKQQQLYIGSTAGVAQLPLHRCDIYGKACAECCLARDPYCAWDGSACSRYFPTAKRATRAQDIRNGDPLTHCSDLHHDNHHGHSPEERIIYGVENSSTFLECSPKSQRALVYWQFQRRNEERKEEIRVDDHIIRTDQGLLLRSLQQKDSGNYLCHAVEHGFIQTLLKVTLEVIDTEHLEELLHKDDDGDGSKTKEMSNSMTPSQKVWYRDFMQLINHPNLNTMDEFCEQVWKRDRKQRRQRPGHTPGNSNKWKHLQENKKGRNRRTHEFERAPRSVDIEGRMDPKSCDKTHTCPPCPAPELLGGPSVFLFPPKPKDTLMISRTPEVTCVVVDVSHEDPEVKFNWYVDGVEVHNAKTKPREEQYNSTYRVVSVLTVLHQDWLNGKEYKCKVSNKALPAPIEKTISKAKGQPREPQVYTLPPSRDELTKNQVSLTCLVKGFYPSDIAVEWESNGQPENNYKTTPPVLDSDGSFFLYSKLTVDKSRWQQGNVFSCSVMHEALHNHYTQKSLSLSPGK
Assay: competition ELISA on coated TPP-13211, competitor biotinylated TPP-15374
Description: For screening in a competition ELISA setup, human Sema3a (TPP-13211) was coated onto 384-well plates (Greiner bio-one, 781077) with a concentration of 0.5 μg/ml in coating buffer (Carbonate-Basis pH 9.6, Candor 121125) over night at 10° C. After washing the plates 3 times with 50 μl PBS 0.05% Tween the plates were blocked with 50 μl Smart Block® (Candor 113500) for 1 h at 20° C. and washed again 3 times as described. […]
parameter: VAL norm to TPP-9809 (1 to 1 ratio)
Answer with a number only.

Problem: Give the measured VAL norm to TPP-9809 (1 to 1 ratio) of TPP-26111 (antibody, human IgG1, lambda, V domains shown) VH: EVQLLESGGGLVQPGGSLRLSCAASGFTFDSYEMNWVRQAPGKGLEWVSGISWNSGWIDYADSVKGRFTISRDNSKNTLYLQMNSLRAEDTAVYYCARSGYSSSWFDPDFDYWGQGTLVTVSS VL: QSVLTQPPSVSGAPGQRVTISCTGSSSNIGAGYDVHWYQQLPGTAPKLLIYGNSNRPSGVPDRFSGSKSGTSASLAITGLQAEDEADYYCSSYAGPNPYVVFGGGTKLTVLG .
Result: 0.49

Next:
Problem: May I ask what VAL norm to TPP-9809 (1 to 1 ratio) has been recorded for TPP-15374 (antibody, human IgG1, lambda, V domains shown, human IgG1; also called IgG1, hit from panning; parental mAb) VH: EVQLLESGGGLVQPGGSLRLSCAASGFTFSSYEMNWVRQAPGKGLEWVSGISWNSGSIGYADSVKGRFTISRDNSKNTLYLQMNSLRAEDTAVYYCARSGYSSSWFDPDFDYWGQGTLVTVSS VL: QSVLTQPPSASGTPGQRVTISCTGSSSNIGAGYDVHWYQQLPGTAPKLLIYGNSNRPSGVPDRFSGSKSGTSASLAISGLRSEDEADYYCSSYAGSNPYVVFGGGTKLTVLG ?
Result: 0.69
